Just for reference, PubChem BioAssay (NCI) is where these values come from.

System: SW-620 colon
Experimental protocol: NCI tumour cell line growth inhibition, 48 h
Observation type: TGI

Here's what some known entries look like.
Compound | TGI
COCC(OC)C(CC=C(C#N)C#N)OC (stereo unspecified) | > 100 µM
COC(=O)C(Cc1ccc2c(c1)CCC2)Cc1ccc2c(c1)CCC2 | > 100 µM
O=C1CCC2(c3ccc(Cl)cc3)Nc3cc(Cl)ccc3N12 (stereo unspecified) | 19.6 µM
Nc1ccc(N=Nc2c(S(=O)(=O)O)cc3ccccc3c2S(=O)(=O)O)cc1 | > 100 µM
COC(=O)c1ccc2c(c1)C(=O)c1c-2n(CCCN=[N+]=[N-])c(=O)c2cc(OC)c(OC)cc12 | > 100 µM
COc1cc(N(CCC#N)CCC#N)ccc1/C(N=Nc1ccc(Cl)cc1)=N/NC(=O)c1cc(Br)ccc1O | > 150 µg/mL
COc1cc2c(cc1OC)C(C(c1ccccc1)c1ccccc1)N(C)CC2 (stereo unspecified) | > 100 µM
CC(=O)Nc1ccc(-c2csc(Nc3cccc(-c4csc(C)n4)c3)n2)cc1 | 49 µM
COC1C(OC(=S)Nc2ccccc2)c2ccccc2N1C(C)=O (stereo unspecified) | > 100 µM
COc1cc2c(cc1OC)C1C3CCCCC3CCN1CC2 (stereo unspecified) | > 100 µM

Next compound, please.
Q. # get_value(readout='TGI', item= `CCCNc1ncnc2c1ncn2C` )
A. > 100 µM
